The measurements presented in this section are drawn from PubChem BioAssay AID1996.

Details: buffer; pH 7.4; 200.0 µM
Is solubility kinetic at least 30 µg/mL? Then Condition met. If not, Condition not met.

A selection of reference data follows.
compound	label
O=C1CN(CC(=O)NC2CCCc3ccccc32)CCN1 (stereo not drawn)	Condition met
Clc1ccc(-c2cc(-c3ccccn3)on2)c(Cl)c1	Condition not met
Cc1ccc(-c2nc(-c3ccncc3)no2)cc1	Condition not met
N#Cc1ccc(CSc2nc(N)cc(=O)[nH]2)cc1	Condition met
CC(C)(C)c1ccc(NC(=O)COC(=O)C2CCCC2)cc1	Condition not met

Query string: Exam item: decide whether the reported solubility kinetic for COCCNC(=S)Nc1ccc([N+](=O)[O-])cc1C is at least 30 µg/mL.
Result string: Condition met

Query string: Exam item: decide whether the reported solubility kinetic for CCC1(CC)N=C(c2ccccc2)C(=S)N1 is at least 30 µg/mL.
Result string: Condition met

Query string: Exam item: decide whether the reported solubility kinetic for COc1cc(OC)cc(C(=O)OCC(=O)Nc2ccc3[nH]c(=O)[nH]c3c2)c1 is at least 30 µg/mL.
Result string: Condition not met

Query string: Exam item: decide whether the reported solubility kinetic for O=C1SCCC1NS(=O)(=O)c1ccc([N+](=O)[O-])cc1 (stereo not drawn) is at least 30 µg/mL.
Result string: Condition met

Query string: Exam item: decide whether the reported solubility kinetic for Cc1ccc(OCc2cc(C(=O)NC3CCCCC3)no2)cn1 is at least 30 µg/mL.
Result string: Condition met

Query string: Exam item: decide whether the reported solubility kinetic for O=C(NC(=S)N1CCOCC1)c1ccccc1Cl is at least 30 µg/mL.
Result string: Condition met

Query string: Exam item: decide whether the reported solubility kinetic for O=C(O)c1cccc(S(=O)(=O)Nc2ccc(-c3ccccc3)cc2)c1 is at least 30 µg/mL.
Result string: Condition met

Query string: Exam item: decide whether the reported solubility kinetic for C/C(=N/NC(=O)CN1CCN(Cc2ccccc2Cl)CC1)c1cccnc1 is at least 30 µg/mL.
Result string: Condition met

Query string: Exam item: decide whether the reported solubility kinetic for COCc1cc(=O)[nH]c(-c2csc(C)n2)n1 is at least 30 µg/mL.
Result string: Condition met

Query string: Exam item: decide whether the reported solubility kinetic for CC(C)NC(=O)/C(C#N)=C\c1ccc(N(C)C)o1 is at least 30 µg/mL.
Result string: Condition met

Query string: Exam item: decide whether the reported solubility kinetic for Cc1ccsc1C(=O)C1CCCN(Cc2ccc(O)cc2)C1 (stereo not drawn) is at least 30 µg/mL.
Result string: Condition met

Query string: Exam item: decide whether the reported solubility kinetic for COc1cc(/C=C(\CCC(=O)O)c2nc3ccccc3s2)ccc1OCC(=O)Nc1c(Cl)cccc1Cl is at least 30 µg/mL.
Result string: Condition not met

Query string: Exam item: decide whether the reported solubility kinetic for COCc1cc(OC)nc(-c2csc(C)n2)n1 is at least 30 µg/mL.
Result string: Condition met

Query string: Exam item: decide whether the reported solubility kinetic for COc1ccc(CC(C)NC2CCCCCC2)cc1 (stereo not drawn) is at least 30 µg/mL.
Result string: Condition met

Query string: Exam item: decide whether the reported solubility kinetic for COc1ccc(NC(=O)CSc2ccc(NC(C)=O)cc2)cc1S(=O)(=O)N1CCOCC1 is at least 30 µg/mL.
Result string: Condition met

Query string: Exam item: decide whether the reported solubility kinetic for O=C(NC(=S)NCc1ccccc1)c1ccc(Br)cc1 is at least 30 µg/mL.
Result string: Condition not met

Query string: Exam item: decide whether the reported solubility kinetic for Cc1ccc(C)c(OCCC(=O)OCC(=O)Nc2cc(S(=O)(=O)N3CCCCC3)ccc2C)c1 is at least 30 µg/mL.
Result string: Condition not met
